Every entry's value here was drawn from PubChem BioAssay (NCI).

Tested on: RXF 393 renal
Experiment: NCI-60 one-dose screen, 48 h
Conditions: 10 µM unless noted
Compounds without any hit were thinned out: in the full panel of roughly 83,000, 20% have a hit. Calls of active or inactive are those of the source. How the source made its calls: active means growth percent below 10; inactive means the rest.
Pick one: true for active, false for inactive

> print(dat)
                               smiles.entry   study.target  category.label
1    Cn1c(SCC(=O)c2ccc(Br)cc2)nc2ccccc2c1=O  RXF 393 renal           false
2  CN1CCN(Cc2ccc(NC(=O)c3cncc(C#Cc4cnc5ccc(O[C@@H]6CCOC6)nn45)c3)cc2C(F)(F)F)CC1  RXF 393 renal            true

Could you please tell me the result logged for NC1=NC2(CCCC2)N(c2ccc(S(=O)(=O)Nc3nccs3)cc2)C(N)=N1 in this assay? false
